TARGET: recombinant human PAI-1 (Homo sapiens, UniProt P05121)
Sequence (P05121 24-402): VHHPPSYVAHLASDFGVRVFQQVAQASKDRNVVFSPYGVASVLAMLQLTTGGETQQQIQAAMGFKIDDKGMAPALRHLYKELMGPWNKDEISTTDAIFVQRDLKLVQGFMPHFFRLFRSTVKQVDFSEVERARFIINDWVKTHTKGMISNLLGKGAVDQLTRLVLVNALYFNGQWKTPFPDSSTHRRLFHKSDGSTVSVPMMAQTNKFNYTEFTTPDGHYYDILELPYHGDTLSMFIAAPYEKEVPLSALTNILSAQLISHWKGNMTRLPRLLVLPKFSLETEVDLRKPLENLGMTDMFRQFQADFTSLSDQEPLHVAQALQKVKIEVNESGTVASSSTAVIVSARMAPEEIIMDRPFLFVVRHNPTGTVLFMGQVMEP
ASSAY_COMMENT: Test Example 2: Human PAI-1 Inhibitory Activity (pH 7.4 HEPES buffer, 10 minutes incubation with two-chain tPA)
Format: biochemical
Design: purchased Molecular Innovations, Inc
COND: read-out: Inhibition Rate of PAI-1 Activity (%)
Kindly supply the reported inhibition at 1 µM values for the records listed here.
Numeric only. Scale: %

Query inhibition at 1 µM on recombinant human PAI-1 (Homo sapiens, UniProt P05121) for CCCCCCC(Oc1cc(-c2ccc(OC(F)(F)F)cc2)ccc1Oc1ccc(C(C)(C)C)cc1)C(=O)O (stereo not drawn)
91

And what about the compound O=C(O)C(=O)N(Cc1ccc(-c2ccc(OC(F)(F)F)cc2)cc1)c1ccccc1 ?
5

And what about the compound CC(C)(C)c1ccc(Oc2ccc(-c3ccc(C(C)(C)C)cc3)cc2OCC(=O)O)cc1 ?
96

And what about the compound CCCCC(Nc1cc(-c2ccc(OC(F)(F)F)cc2)ccc1Oc1ccc(C(C)(C)C)cc1)C(=O)O (stereo not drawn) ?
74

And what about the compound CCCCc1ccc(Oc2cc(-c3ccc(OC(F)(F)F)cc3)ccc2CCC(=O)O)cc1 ?
96

And what about the compound CCCCCOc1ccc(-c2ccc(C(C)C)cc2)cc1N(CCCCc1ccccc1)C(=O)C(=O)O ?
97

And what about the compound CCCCCOc1ccc(Oc2ccc(OC(F)(F)F)cc2)cc1N(CCCCc1ccccc1)C(=O)C(=O)O ?
72

And what about the compound CC(C)(C)c1ccc(Oc2cc(-c3ccc(OC(F)(F)F)cc3)ccc2C(=O)O)cc1 ?
66

And what about the compound CC(C)(C)c1ccc(CN(C(=O)C(=O)O)c2ccc(N3CCN(c4ccc(OC(F)(F)F)cc4)CC3)cc2)cc1 ?
40

###

TARGET: recombinant human PAI-1 (Homo sapiens, UniProt P05121)
ASSAY_COMMENT: Test Example 2: Human PAI-1 Inhibitory Activity (pH 7.4 HEPES buffer, 10 minutes incubation with two-chain tPA)
Assay type: biochemical
Set-up: purchased Molecular Innovations, Inc
COND: read-out: Inhibition Rate of PAI-1 Activity (%)
Kindly supply the reported inhibition at 0.1 µM values for the records listed here.

Endpoint output: inhibition at 0.1 µM of CC(C)(C)c1ccc(CCc2cc(-c3ccc(OC(F)(F)F)cc3)ccc2OCC(=O)O)cc1 . Value?
0%

And what about the molecule O=C(O)C(=O)N(CCCCc1ccccc1)c1cc(-c2ccc(OC(F)(F)F)cc2)ccc1OC1CCCC1 ?
9%

And what about the molecule CCCCN(CC(=O)O)c1cc(-c2ccc(OC(F)(F)F)cc2)ccc1OCCCCc1ccccc1 ?
13%

And what about the molecule CCCCCCCCCCCCCCCOc1cc(-c2ccc(OC(F)(F)F)cc2)ccc1N(CCCCc1ccccc1)C(=O)C(=O)O ?
74%

And what about the molecule CC(C)Oc1ccc(N(Cc2ccc(C(C)(C)C)cc2)C(=O)C(=O)O)cc1-c1ccc(OC(F)(F)F)cc1 ?
9%

And what about the molecule CC(C)(C)c1ccc(CN(C(=O)C(=O)O)c2ccc(Cl)cc2-c2ccc(OC(F)(F)F)cc2)cc1 ?
0%

And what about the molecule CC(C)(C)c1ccc(Oc2cc(-c3ccc(OC(F)(F)F)cc3)ccc2CCCC(=O)O)cc1 ?
6%

And what about the molecule CCCCCOc1ccc(-c2cc(C)cc(C)c2)cc1N(CCCCc1ccccc1)C(=O)C(=O)O ?
3%

And what about the molecule CC(C)c1ccc(Oc2cc(-c3ccc(OC(F)(F)F)cc3)ccc2OCC(=O)O)cc1 ?
4%

And what about the molecule CCCCc1ccc(-c2ccc(Oc3ccc(C(C)(C)C)cc3)c(OCC(=O)O)c2)cc1 ?
0%

Cited source for all entries: patent EP2272817A1
